FYI, the data here is from patent US20180104220A1.

- system under test: thromboxane synthetase (Rattus norvegicus)
- Construct: Whole blood was collected from the heart of male SD rat after isoflurane anesthesia; from tissue; host or cells: whole blood of male Sprague-Dawley rats
- Sequence (P49430 whole entry): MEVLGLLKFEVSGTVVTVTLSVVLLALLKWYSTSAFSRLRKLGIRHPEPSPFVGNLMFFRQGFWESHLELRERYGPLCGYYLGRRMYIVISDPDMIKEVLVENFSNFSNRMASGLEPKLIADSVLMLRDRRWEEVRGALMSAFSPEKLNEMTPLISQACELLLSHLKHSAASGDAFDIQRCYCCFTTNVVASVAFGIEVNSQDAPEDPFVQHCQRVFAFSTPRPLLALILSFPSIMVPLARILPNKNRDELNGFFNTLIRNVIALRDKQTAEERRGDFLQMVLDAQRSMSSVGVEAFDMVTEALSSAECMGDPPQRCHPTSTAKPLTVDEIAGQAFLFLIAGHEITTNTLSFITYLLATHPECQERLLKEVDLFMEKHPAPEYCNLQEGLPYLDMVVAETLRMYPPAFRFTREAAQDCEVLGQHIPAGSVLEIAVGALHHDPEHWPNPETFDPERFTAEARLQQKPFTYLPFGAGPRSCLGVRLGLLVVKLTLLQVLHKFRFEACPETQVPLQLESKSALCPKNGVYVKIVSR
- measurement notes: Release of TXB2 in the in-vitro coagulation process of rats' whole blood
- Type: cell-based
- condition summary: male SD rat whole blood, 37° C. 30 mins, TXB2 by LC-MS/MS; numeric value; read-out: IC50 for the release level of TXB2 in the in-vitro coagulation of rats' whole blood (thromboxane synthetase)
parameter measured: IC50 (nM)
Give your result in nM as a bare value.

Task: Test system thromboxane synthetase (Rattus norvegicus); read-out IC50; what value for O=C(O)/C=C/c1ccc(Cn2ccnc2)cc1 [Ozagrel, reference compound] ?
Result: 120
